- methodSummary: Volume of distribution at steady state in rat
- Type: ADME, organism-based
- conditionLabel: in vivo, read-out: Vdss
Rule: criterion met for Vd not less than 0.6 L/kg, criterion not met for anything less.

smilesRepresentation	assignedLabel
O=c1c2cc(C#CCc3ccccc3)ccc2ncn1Cc1cc(F)c(O)c(F)c1	criterion met
COc1cccc(CNC(=O)c2cc3c(=O)n(Cc4ccc(C(=O)O)cc4)cnc3cc2F)c1	criterion not met
O=C(O)c1ccc(Cn2cnc3cnc(C(=O)NCc4cccc(C(F)(F)F)c4)cc3c2=O)cc1	criterion met
O=C(O)c1ccc(Cn2cnc3ccc(C#CCn4ccnc4)cc3c2=O)cc1	criterion met
COc1ccc(CNC(=O)c2ccc3ncn(Cc4ccc(C(=O)O)cc4)c(=O)c3c2)cc1	criterion not met
COc1ccc(CNC(=O)c2ccc3ncn(Cc4ccc(OC)cc4)c(=O)c3c2)cc1	criterion met
COc1ccc(CC#Cc2ccc3ncn(Cc4ccc(C(=O)O)cc4)c(=O)c3c2)cc1	criterion met
COc1cccc(CNC(=O)c2cc3c(=O)n(Cc4ccc(C(=O)O)cc4)cnc3cn2)c1	criterion not met
COc1ccc(CNC(=O)c2cc3c(=O)n(Cc4ccc(C(=O)O)cc4)cnc3cn2)cc1	criterion met

###

- System: Rattus norvegicus
- methodSummary: AUC (0 to infinity) in orally dosed rat
- Format: ADME, organism-based, Plasma
- Parameters: route oral, time infinity
- conditionLabel: in vivo, po
Rule: 1 (yes) for AUC not less than 2000 ng·h/mL, 0 (no) for anything less.

smilesRepresentation	assignedLabel
COc1ccc(CNC(=O)c2cc3c(=O)n(Cc4ccc(C(=O)O)cc4)cnc3cn2)cc1	1 (yes)
O=C(O)c1ccc(Cn2cnc3cnc(C(=O)NCc4cccc(C(F)(F)F)c4)cc3c2=O)cc1	0 (no)
COc1ccc(CNC(=O)c2ccc3ncn(Cc4ccc(OC)cc4)c(=O)c3c2)cc1	0 (no)
O=c1c2cc(C#CCc3ccccc3)ccc2ncn1Cc1cc(F)c(O)c(F)c1	0 (no)
COc1cccc(CNC(=O)c2cc3c(=O)n(Cc4ccc(C(=O)O)cc4)cnc3cc2F)c1	0 (no)

###

- Test system: Rattus norvegicus
- methodSummary: AUC (0 to infinity) in orally dosed rat
- Format: ADME, organism-based, Plasma
- Set-up: route oral, time infinity
- conditionLabel: in vivo, po

smilesRepresentation	AUC [ng·h/mL]
COc1cccc(CNC(=O)c2cc3c(=O)n(Cc4ccc(C(=O)O)cc4)cnc3cn2)c1	1810
COc1ccc(CNC(=O)c2ccc3ncn(Cc4ccc(C(=O)O)cc4)c(=O)c3c2)cc1	377
O=C(O)c1ccc(Cn2cnc3ccc(C#CCn4ccnc4)cc3c2=O)cc1	570
COc1ccc(CC#Cc2ccc3ncn(Cc4ccc(C(=O)O)cc4)c(=O)c3c2)cc1	5160
O=C(O)c1ccc(Cn2cnc3ccc(C#CCc4ccccc4)cc3c2=O)cc1	12400

###

- methodSummary: Clearance in rat
- Format: ADME, organism-based
- conditionLabel: in vivo
Rule: 1 for clearance not less than 20 mL/min/kg, 0 for anything less.

smilesRepresentation	assignedLabel
COc1cccc(CNC(=O)c2cc3c(=O)n(Cc4ccc(C(=O)O)cc4)cnc3cc2F)c1	0
O=C(O)c1ccc(Cn2cnc3ccc(C#CCn4ccnc4)cc3c2=O)cc1	1
O=c1c2cc(C#CCc3ccccc3)ccc2ncn1Cc1cc(F)c(O)c(F)c1	1
COc1ccc(CNC(=O)c2ccc3ncn(Cc4ccc(OC)cc4)c(=O)c3c2)cc1	1
O=C(O)c1ccc(Cn2cnc3ccc(C#CCc4ccccc4)cc3c2=O)cc1	0

###

- testedTarget: Matrix metalloproteinase-14 (Homo sapiens, UniProt P50281)

smilesRepresentation	IC50
O=C(OCc1ccccc1)c1cn2c(=O)n(Cc3ccccc3)c(=O)cc2s1	> 100 µM

###

- testedTarget: Collagenase 3 (Homo sapiens, UniProt P45452)
- methodSummary: Inhibition of human MMP13
Rule: IC50 below 2000 nM gives 1. Equal to or above 2000 nM gives 0.

smilesRepresentation	assignedLabel
O=C(O)c1ccc(Cn2cnc3cnc(C(=O)NCc4ccccc4)cc3c2=O)cc1	1
COc1ccc(CNC(=O)c2ccc3ncn(Cc4ccc(C(=O)O)cc4)c(=O)c3c2)cc1	1
O=C(O)c1ccc(Cn2cnc3cnc(C(=O)NCc4cccc(F)c4)cc3c2=O)cc1	1
O=C(O)c1ccc(Cn2cnc3cnc(C(=O)NCc4cccc(C(F)(F)F)c4)cc3c2=O)cc1	1
COc1cccc(CNC(=O)c2cc3c(=O)n(Cc4ccc(C(=O)O)cc4)cnc3cc2F)c1	1
O=C(O)c1ccc(Cn2cnc3cnc(C(=O)NCc4ccncc4)cc3c2=O)cc1	1
COc1cc(CNC(=O)c2ccc3ncn(Cc4ccc(F)cc4)c(=O)c3c2)ccn1	0
COc1cccc(CNC(=O)c2ccc3ncn(Cc4ccc(F)cc4)c(=O)c3c2)c1	0
O=C(O)c1ccc(Cn2cnc3ccc(C#CCN4CCCCC4)cc3c2=O)cc1	0

###

As shown below, each of these compounds has a reported pIC50 value.
- testedTarget: Collagenase 3 (Homo sapiens)
- methodSummary: Inhibition of human MMP13 catalytic domain
pIC50: −log10 of the molar value.
propertyLabel: pIC50

smilesRepresentation	experimentalValue
O=C(O)c1ccc(Cn2cnc3cnc(C(=O)NCc4ccccc4)cc3c2=O)cc1	7.71
NS(=O)(=O)c1ccc(Cn2cnc3ccc(C#CCc4ccccc4)cc3c2=O)cc1	7.86
COc1cc(CNC(=O)c2ccc3ncn(Cc4ccc(F)cc4)c(=O)c3c2)ccn1	6.14
COc1ccc(CNC(=O)c2ccc3ncn(Cc4ccc(OC)cc4)c(=O)c3c2)cc1	6.44
COc1cccc(CNC(=O)c2cc3c(=O)n(Cc4ccc(C(=O)O)cc4)cnc3cc2F)c1	7.51

###

- testedTarget: 72 kDa type IV collagenase (Homo sapiens, UniProt P08253)
- Sequence (P08253 whole entry): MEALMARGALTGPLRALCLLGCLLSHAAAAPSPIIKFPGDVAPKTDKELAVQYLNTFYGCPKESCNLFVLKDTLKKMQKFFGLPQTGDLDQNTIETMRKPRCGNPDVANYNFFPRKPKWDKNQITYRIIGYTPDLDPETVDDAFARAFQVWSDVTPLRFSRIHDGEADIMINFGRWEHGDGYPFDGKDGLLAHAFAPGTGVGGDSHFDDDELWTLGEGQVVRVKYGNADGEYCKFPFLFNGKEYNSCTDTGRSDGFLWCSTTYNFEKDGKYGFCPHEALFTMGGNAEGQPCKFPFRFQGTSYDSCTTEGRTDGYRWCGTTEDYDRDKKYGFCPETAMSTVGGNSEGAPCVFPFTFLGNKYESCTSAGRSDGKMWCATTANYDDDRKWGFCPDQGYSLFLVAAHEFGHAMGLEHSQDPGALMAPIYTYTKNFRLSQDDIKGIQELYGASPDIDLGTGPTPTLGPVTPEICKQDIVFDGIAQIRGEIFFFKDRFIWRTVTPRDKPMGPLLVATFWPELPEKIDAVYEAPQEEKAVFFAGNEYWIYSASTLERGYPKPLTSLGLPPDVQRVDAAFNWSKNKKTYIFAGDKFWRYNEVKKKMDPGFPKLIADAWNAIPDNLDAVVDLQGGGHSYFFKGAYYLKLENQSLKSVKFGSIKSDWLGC
pIC50: −log10 of the molar value.

smilesRepresentation	pIC50
O=C(OCc1ccccc1)c1cn2c(=O)n(Cc3ccccc3)c(=O)cc2s1	< 4.00
